Just for reference, patent US20250250357A1 is where these values come from.

# Target of assay: T1, human MSLN-R2-his protein (human, UniProt Q13421 391-486)
# T1 construct: Self-made in HEK293E cells; also called human MSLN-R2 protein; hMSLN-R2-his; not shown: His tag
# T1 sequence (Q13421 other isoform, or with tags, fused parts or gaps): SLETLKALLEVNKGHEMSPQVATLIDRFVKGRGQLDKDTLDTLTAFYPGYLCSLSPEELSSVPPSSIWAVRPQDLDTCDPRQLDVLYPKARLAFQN
# Method description: ELISA on coated antigen, antibody 0.1 nM
Recorded endpoint: OD450 (OD450)
// note: answer is a bare numeric in OD450

The value of OD450 measured for the binder S009-F2.38.12 (antibody, human IgG1, kappa, V domains shown, Human-murine chimeric antibody: murine VH/VL on human IgG1 heavy and kappa light constant regions) VH: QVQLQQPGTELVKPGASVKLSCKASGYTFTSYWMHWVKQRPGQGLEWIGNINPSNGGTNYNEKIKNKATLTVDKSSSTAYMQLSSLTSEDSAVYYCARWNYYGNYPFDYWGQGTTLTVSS VL: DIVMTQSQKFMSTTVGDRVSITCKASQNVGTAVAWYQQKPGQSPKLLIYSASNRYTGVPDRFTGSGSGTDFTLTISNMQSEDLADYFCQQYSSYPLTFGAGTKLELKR turned out to be 0.05
